Data origin, for the record: patent US4698327A

# System: Staphylococcus aureus V41
# experiment: MIC, standard agar-dilution assay
# Assay type: cell-based
Reported MIC values follow for various compounds
readout: MIC (µg/mL)

[[record]]
compound = "CCCCNC1(C)CC(OC2C(Oc3c4cc5cc3Oc3ccc(cc3Cl)C(O)C3NC(=O)C(NC(=O)C5NC(=O)C(CC(N)=O)NC(=O)C(NC(=O)C(CC(C)C)NC)C(O)c5ccc(c(Cl)c5)O4)c4ccc(O)c(c4)-c4c(O)cc(O)cc4C(C(=O)O)NC3=O)OC(CO)C(O)C2O)OC(C)C1O (stereo not shown) [Compound 17, N^van --(n-butyl)vancomycin]"
targetsystem = "Staphylococcus aureus V41"
readout = "MIC"
observedvalue = 1

[[record]]
compound = "CCCCCCCCCCCCNC1(C)CC(OC2C(Oc3c4cc5cc3Oc3ccc(cc3Cl)C(O)C3NC(=O)C(NC(=O)C5NC(=O)C(CC(N)=O)NC(=O)C(NC(=O)C(CC(C)C)NC)C(O)c5ccc(c(Cl)c5)O4)c4ccc(O)c(c4)-c4c(O)cc(O)cc4C(C(=O)O)NC3=O)OC(CO)C(O)C2O)OC(C)C1O (stereo not shown) [Compound 1, N^van --(n-dodecyl)vancomycin]"
targetsystem = "Staphylococcus aureus V41"
readout = "MIC"
observedvalue = 0.25

[[record]]
compound = "CCCCCCCCCCNC1(C)CC(OC2C(Oc3c4cc5cc3Oc3ccc(cc3Cl)C(O)C(NC(=O)C(CC(C)C)N(C)CCCCCCCCCC)C(=O)NC(CC(N)=O)C(=O)NC5C(=O)NC3C(=O)NC(C(=O)NC(C(=O)O)c5cc(O)cc(O)c5-c5cc3ccc5O)C(O)c3ccc(c(Cl)c3)O4)OC(CO)C(O)C2O)OC(C)C1O (stereo not shown) [Compound 4, N^van, N^leu --di(n-decyl)vancomycin]"
targetsystem = "Staphylococcus aureus V41"
readout = "MIC"
observedvalue = 4

[[record]]
compound = "CCCNC1(C)CC(OC2C(Oc3c4cc5cc3Oc3ccc(cc3Cl)C(O)C3NC(=O)C(NC(=O)C5NC(=O)C(CC(N)=O)NC(=O)C(NC(=O)C(CC(C)C)NC)C(O)c5ccc(c(Cl)c5)O4)c4ccc(O)c(c4)-c4c(O)cc(O)cc4C(C(=O)O)NC3=O)OC(CO)C(O)C2O)OC(C)C1O (stereo not shown) [Compound 20, N^van --(n-propyl)vancomycin]"
targetsystem = "Staphylococcus aureus V41"
readout = "MIC"
observedvalue = 1

